# experimental target: HLA-A*3301 (Homo sapiens, UniProt P04439, A270S/D185E/E176V/E277Q/E87N/F33T/G231S/H175R/I121M/I218V/I322F/K168Q/K210R/L300P/L318F/M331R/P217A/Q86R/Q94H/R138Q/T323A/T345S/T97I/V358M/Y195H)
# test name: biochemical
# Assay type: binding
No end group written: not given here.
observed property: IC50 (µM)
Quick reminder: number only, in µM, skip the unit.

[in] Quick one: IC50 for ATTDLTIVYR ?
[out] 1.74

[in] Any idea what IC50 was measured for AVGPGPGLK ?
[out] 75.8

[in] Quick one: IC50 of MQSSFFMNR ?
[out] 0.075

New cases:
[in] If you can, please state the reported IC50 value of VVHAQLPAR .
[out] 0.012

[in] Report IC50 for QMAGPGPGFK please.
[out] 4.78

[in] Dear colleague, I am looking for the recorded IC50 of the following sequence: AVADLTVVYR
[out] 0.892

[in] For the sequence shown here, LTYRDDFPY , give the reported IC50.
[out] 20.2

[in] // IC50 lookup, key: ALERLLSLKK
[out] 18.3

Value source: patent US20060079453A1
